- Tested on: Fer kinase domain
- Protocol: pTyr-Var library bacterial peptide display kinase screen (enrichment scores);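 further: log2 fold change in enrichment of variant over reference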
- Format: biochemical, mouse
- Test conditions: sheet "Fer"; variant peptide relative to its reference peptide, pTyr-Var library screen enrichment
Screen overview
Give the figure only, with no unit attached.

Below, each entry is followed by its recorded Screen result.
>  <Residue sequence>
IVRSLYEDVED [VHL_Y185_L188V]

>  <Assay value>
0.543

$$$$
>  <Residue sequence>
NREGVYRVFAP [TGFBI_Y537_T538R]

>  <Assay value>
-4.485

$$$$
>  <Residue sequence>
PKSLFYLLLKP [TRPC6_Y775_L780P]

>  <Assay value>
-0.7977

$$$$
>  <Residue sequence>
LLDGEYFTLQI [TP53_Y327_P322L]

>  <Assay value>
0.2479

$$$$
>  <Residue sequence>
VIVRMYDFHVL [RPF2_Y109_G106V_YF]

>  <Assay value>
-0.9951

$$$$

Now look at this one.
Qu. Recorded Screen for LRSRVYEVPVE [SLC26A3_Y756_N753S] , please?
Ans. -0.9023
